Target: Recombinant human His-tagged Trim24-PHD-bromodomain (Homo sapiens, UniProt O15164)
Construct: Recombinant human His-tagged Trim24-PHD-bromodomain (produced in-house)
Assay: Trim24 AlphaScreen Assay
Conditions: 5 nM Trim24 protein, 15 nM biotinylated H3K23ac (1-33aa) peptide
pIC50: −log10 of the molar value.
ASSAY_METRIC: pIC50

CCCOc1cc(OCCCOC)cc(Oc2cc3c(cc2NS(=O)(=O)c2cn(CC(C)C)cn2)n(C)c(=O)n3C)c1 [Example 147]
7.00 to 8.00

In: Quick one: pIC50 for COc1cc(S(=O)(=O)Nc2cc3c(cc2Oc2cccc(OCC4CC4)c2)n(C)c(=O)n3C)ccc1O [Example 241] ?
Out: 7.00 to 8.00

In: Param item = CCCOc1cc(OCCCCCN)cc(Oc2cc3c(cc2NS(=O)(=O)c2cn(C)cn2)n(C)c(=O)n3C)c1 [Example 197] ; retrieve measured pIC50.
Out: 7.00 to 8.00

In: # get_value(readout='pIC50', item= CC(CO)COc1cccc(Oc2cc3c(cc2NS(=O)(=O)c2cn(C)cn2)n(C)c(=O)n3C)c1 (centres unmarked) [Example 230] )
Out: 6.00 to 7.00

In: What does the record list as pIC50 for COc1ccc(S(=O)(=O)Nc2cc3c(cc2Oc2cccc(OCC(F)(F)F)c2)n(C)c(=O)n3C)cn1 [Example 221] ?
Out: 7.00 to 8.00

In: Quick one: pIC50 of Cn1cnc(S(=O)(=O)Nc2cc3c(cc2Oc2cccc(OCc4ccccn4)c2)n(C)c(=O)n3C)c1 [Example 28] ?
Out: 6.00 to 7.00

In: For CCCOc1cc(OCCCOC)cc(Oc2cc3c(cc2NS(=O)(=O)c2cccc4[nH]c(=O)c(=O)[nH]c24)n(C)c(=O)n3C)c1 [Example 176] , what is its reported pIC50?
Out: 7.00 to 8.00

In: What does the data say about its pIC50? Entry: Cn1cnc(S(=O)(=O)Nc2cc3c(cc2Oc2cccc(OCC4CCOCC4)c2)n(C)c(=O)n3C)c1 [Example 65]
Out: 6.00 to 7.00

In: Which pIC50 is listed for CCn1cc(S(=O)(=O)Nc2cc3c(cc2Oc2cccc(OCc4ccccc4)c2)n(C)c(=O)n3C)cn1 [Example 77] ?
Out: 6.00 to 7.00

In: Field request: pIC50 | item: CCCOc1cc(OCCCCN)cc(Oc2cc3c(cc2NS(=O)(=O)c2ccccn2)n(C)c(=O)n3C)c1 [Example 198]
Out: 7.00 to 8.00

In: Entry Cc1nc(S(=O)(=O)Nc2cc3c(cc2Oc2cccc(OCC4CCNCC4)c2)n(C)c(=O)n3C)cn1C [Example 229] has what pIC50?
Out: 6.00 to 7.00

In: Consider the compound Cn1c(=O)n(C)c2cc(Oc3cccc(OCc4ccccc4)c3)c(NS(=O)(=O)C3CC3)cc21 [Example 12] and give its measured pIC50.
Out: < 6.00

In: Given the compound COc1cccc(Oc2cc3c(cc2NS(=O)(=O)c2cn(C)cn2)n(C)c(=O)n3C)c1 [Example 63] , what is its reported pIC50?
Out: 6.00 to 7.00

In: Endpoint output: pIC50 of Cn1cnc(S(=O)(=O)Nc2cc3c(cc2Oc2cccc(OCCCC(F)(F)F)c2)n(C)c(=O)n3C)c1 [Example 84] . Value?
Out: 6.00 to 7.00

---

Biological target: BRPF3 (Homo sapiens)
Sequence (Q9ULD4 589-693 limits assumed): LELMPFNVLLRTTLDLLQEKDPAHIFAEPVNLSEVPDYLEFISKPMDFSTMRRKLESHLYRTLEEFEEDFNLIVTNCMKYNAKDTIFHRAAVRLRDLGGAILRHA
Assay: BROMOscan DiscoveRx Binding Constant Assay (BRPF3)
Settings: qPCR readout
pKd: −log10 of the molar value.
ASSAY_METRIC: pKd

In: Recorded pKd for Cc1nc(S(=O)(=O)Nc2cc3c(cc2Oc2cccc(OCC(C)C)c2)n(C)c(=O)n3C)cn1C , please?
Out: 7.00 to 7.96

In: I have this molecule here, COCCCOc1cccc(Oc2cc3c(cc2NS(=O)(=O)c2cn(C)c(C)n2)n(C)c(=O)n3C)c1 , and I need its recorded pKd.
Out: < 7.00

In: Return reported pKd; argument: CCCOc1cccc(Oc2cc3c(cc2NS(=O)(=O)c2ccc(OC)c(OC)c2)n(C)c(=O)n3C)c1
Out: 7.00 to 7.96

In: Quick one: pKd of Cn1c(=O)n(C)c2cc(Oc3cccc(OCC(F)(F)F)c3)c(NS(=O)(=O)c3cccnc3)cc21 ?
Out: 7.00 to 7.96

In: Fill blank: measured pKd of the molecule CCCOc1cc(OCCCCCCN)cc(Oc2cc3c(cc2NS(=O)(=O)c2cn(C)cn2)n(C)c(=O)n3C)c1 [Example 8, 2,2,2-trifluoroacetate] is ____.
Out: 7.00 to 7.96

---

Target: BRPF2 (Homo sapiens)
Sequence (O95696 562-666 limits assumed): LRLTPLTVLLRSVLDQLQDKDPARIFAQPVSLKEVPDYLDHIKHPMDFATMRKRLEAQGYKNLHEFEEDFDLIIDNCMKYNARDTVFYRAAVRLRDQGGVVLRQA
Test: BROMOscan DiscoveRx Binding Constant Assay (BRPF2)
Conditions: qPCR readout
pKd: −log10 of the molar value.
ASSAY_METRIC: pKd

Reference set (4 entries):
CCCOc1cccc(Oc2cc3c(cc2NS(=O)(=O)c2ccc(OC)c(OC)c2)n(C)c(=O)n3C)c1
7.00 to 7.96
COCCCOc1cccc(Oc2cc3c(cc2NS(=O)(=O)c2cn(C)c(C)n2)n(C)c(=O)n3C)c1
7.00 to 7.96
CCCOc1cc(OCCCCCCN)cc(Oc2cc3c(cc2NS(=O)(=O)c2cn(C)cn2)n(C)c(=O)n3C)c1 [Example 8, 2,2,2-trifluoroacetate]
8.00 to 9.00
Cn1c(=O)n(C)c2cc(Oc3cccc(OCC(F)(F)F)c3)c(NS(=O)(=O)c3cccnc3)cc21
8.00 to 9.00

In: Fill blank: measured pKd of the compound Cc1nc(S(=O)(=O)Nc2cc3c(cc2Oc2cccc(OCC(C)C)c2)n(C)c(=O)n3C)cn1C is ____.
Out: 7.00 to 7.96

---

Biological target: Recombinant human His-tagged Trim24-PHD-bromodomain (Homo sapiens, UniProt O15164)
Construct: Recombinant human His-tagged Trim24-PHD-bromodomain (produced in-house)
Sequence (O15164 824-1006 limits assumed): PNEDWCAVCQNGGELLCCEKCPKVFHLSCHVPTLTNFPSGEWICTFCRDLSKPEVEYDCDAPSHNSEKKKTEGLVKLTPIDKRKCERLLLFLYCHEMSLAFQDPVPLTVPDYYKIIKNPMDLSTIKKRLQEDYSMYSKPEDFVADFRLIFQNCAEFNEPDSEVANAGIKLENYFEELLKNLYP
Test: Trim24 AlphaScreen Assay
Settings: 5 nM Trim24 protein, 15 nM biotinylated H3K23ac (1-33aa) peptide
Examples of compounds with documented IC50 follow.

Record excerpt, results attached:
C=C(C)COc1cccc(Oc2cc3c(cc2NS(=O)(=O)c2cn(C)cn2)n(C)c(=O)n3C)c1 [Example 70]
10 to 100 nM
COCCCOc1cc(OCC(F)(F)F)cc(Oc2cc3c(cc2NS(=O)(=O)c2cnn(C)c2C)n(C)c(=O)n3C)c1 [Example 204]
10 to 100 nM
CCCOc1cc(OCC2CC2)cc(Oc2cc3c(cc2NS(=O)(=O)c2cn(C)cn2)n(C)c(=O)n3C)c1 [Example 126]
10 to 100 nM

In: Look up IC50 for this compound: COc1ccc(S(=O)(=O)Nc2cc3c(cc2Oc2cccc(OCC4CC4)c2)n(C)c(=O)n3C)cc1OC [Example 127]
Out: 10 to 100 nM

In: Could you share which IC50 value was measured for CCCOc1cc(OCCCCN)cc(Oc2cc3c(cc2NS(=O)(=O)c2cccc(C(=O)OC)c2)n(C)c(=O)n3C)c1 [Example 252] ?
Out: 10 to 100 nM

In: Would you mind telling me what IC50 value was observed for CCCOc1cc(OCC2CC2)cc(Oc2cc3c(cc2NS(=O)(=O)c2cccnc2)n(C)c(=O)n3C)c1 [Example 118] ?
Out: 10 to 100 nM

In: # input compound: C=CCOc1cccc(Oc2cc3c(cc2NS(=O)(=O)c2cccc4ccccc24)n(C)c(=O)n3C)c1 [Example 142] ; wanted: its IC50
Out: 100 to 1000 nM

In: Please give the measured IC50 for this compound: COCCCOc1cccc(Oc2cc3c(cc2NS(=O)(=O)c2cn(C)cn2)n(C)c(=O)n3C)c1 [Example 68]
Out: 100 to 1000 nM

In: Form field: reported IC50 of CC(COC(=O)CNC(=O)OC(C)(C)C)COc1cccc(Oc2cc3c(cc2NS(=O)(=O)c2cn(C)cn2)n(C)c(=O)n3C)c1 (stereo not drawn) [Example 239]
Out: 100 to 1000 nM

---

Listing: IC50 of selected compounds
Biological target: Recombinant human His-tagged Trim24-PHD-bromodomain (Homo sapiens, UniProt O15164)
Construct: Recombinant human His-tagged Trim24-PHD-bromodomain (produced in-house)
Sequence (O15164 824-1006 limits assumed): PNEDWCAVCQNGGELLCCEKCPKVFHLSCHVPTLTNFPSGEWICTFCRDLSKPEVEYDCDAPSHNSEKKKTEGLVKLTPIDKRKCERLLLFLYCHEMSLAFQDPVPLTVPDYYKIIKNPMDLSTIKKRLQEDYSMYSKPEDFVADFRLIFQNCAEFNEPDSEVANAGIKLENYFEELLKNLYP
Assay: Trim24 AlphaScreen Assay
Settings: 5 nM Trim24 protein, 15 nM biotinylated H3K23ac (1-33aa) peptide

Cn1c(=O)n(C)c2cc(Oc3cccc(OCc4ccccc4)c3)c(NS(=O)(=O)c3nnc[nH]3)cc21 [Example 22]
100 to 1000 nM

We next turn to a different compound, shown below.
In: Which IC50 is reported with Recombinant human His-tagged Trim24-PHD-bromodomain (Homo sapiens, UniProt O15164) for this entry: Cc1nc(S(=O)(=O)Nc2cc3c(cc2Oc2cccc(OCc4ccccc4)c2)n(C)c(=O)n3C)c[nH]1 [Example 49] ?
Out: 100 to 1000 nM
